Test system: RXF 631
Assay: NCI tumour cell line growth inhibition, 48 h
The source made the active and inactive calls. Cut-off read from the data, not from the text of the source: active = GI50 up to about 1.1 µM and inactive = higher.
result-type: GI50

# example entries with known answers
compound: CC1(C)OC(COCCOCCCCCO)C(COCCOCCCCCO)O1 (centres undefined)
GI50: > 100 µM (inactive)

compound: Cc1cc(Cl)ccc1NC(=O)CCCC(=O)C1CCC/C1=N\NC(=O)CC#N (centres undefined)
GI50: > 100 µM (inactive)

compound: Nc1ccc(C(=O)N/C(=C\c2cccc([N+](=O)[O-])c2)c2nc3cc(Cl)ccc3[nH]2)cc1
GI50: 63 µM (inactive)

compound: NCCCNCCSSCc1ccccc1CSSCCNCCCN
GI50: > 100 µM (inactive)

Can you look up the measured GI50 of NC(=O)c1cc(N2CC2)c([N+](=O)[O-])cc1[N+](=O)[O-] for me?
> 100 µM (inactive)

Can you look up the measured GI50 of COc1ccc(S(=O)(=O)NNS(C)(=O)=O)cc1 for me?
> 100 µM (inactive)

Can you look up the measured GI50 of O=C1NC(=S)NC(=O)C1=Cc1cc2c(cc1[N+](=O)[O-])OCO2 for me?
97.3 µM (inactive)

Can you look up the measured GI50 of O=C1[C@@H]2C(c3ccc(Br)cc3)=NO[C@@H]2C(=O)N1c1ccc(Cc2ccc(N3C(=O)[C@H]4C(c5ccc(Br)cc5)=NO[C@H]4C3=O)cc2)cc1 for me?
> 40 µM (inactive)

Can you look up the measured GI50 of CC(=O)OC1(C#N)CC2OC1C1C2N1C(=O)c1ccccc1 (centres undefined) for me?
> 100 µM (inactive)

###

Test system: SF-268
Experiment: NCI tumour cell line growth inhibition, 48 h
The source made the active and inactive calls. Cut-off read from the data, not from the text of the source: active = GI50 up to about 1.1 µM and inactive = higher.
Parameter: GI50. Scope: all listed entries.

# example entries with known answers
compound: COc1cccc(C(=O)N[C@@H]2[C@H](O)[C@@H](CO)O[C@H]2n2cnc3c(N)ncnc32)c1
result-type: GI50
value: > 100 µM (inactive)

compound: CCN1C(=S)n2cccc2C1CC(=O)c1ccc(Cl)cc1 (stereo unspecified)
result-type: GI50
value: 63.1 µM (inactive)

compound: NC(=S)N/N=C(\C(=O)Nc1cccc([N+](=O)[O-])c1)c1nc2ccc([N+](=O)[O-])cc2nc1O
result-type: GI50
value: > 100 µM (inactive)

compound: COc1ccc(/C=C2\CCC(CNc3ccc(S(N)(=O)=O)cc3)C2=O)cc1 (stereo unspecified)
result-type: GI50
value: 22.5 µM (inactive)

Can you look up the measured GI50 of CC(=O)Nc1ccc(-c2nnc(SCC(=O)Nc3ccc(C)cc3)o2)cc1 for me?
20.1 µM (inactive)

Can you look up the measured GI50 of CC(C)(C)c1cc(C2=NNC(c3ccccc3)C2)cc(C(C)(C)C)c1O (stereo unspecified) for me?
17 µM (inactive)

Can you look up the measured GI50 of c1ccc2c(c1)Sc1ccccc1N2C1CN2CCC1CC2 (stereo unspecified) for me?
16.4 µM (inactive)

Can you look up the measured GI50 of CC(C)C1CN1CC(O)Cn1ccnc1[N+](=O)[O-] (stereo unspecified) for me?
> 100 µM (inactive)

Can you look up the measured GI50 of CC(=O)C1=C(C)Cn2c(=O)c3ccccc3c(=O)n2C1 for me?
> 100 µM (inactive)

Can you look up the measured GI50 of OC(C1CCCCCCCCCC1)C(O)C1CCCCCCCCCC1 (stereo unspecified) for me?
> 100 µM (inactive)

Can you look up the measured GI50 of Cn1cc(C(=O)NCCC(=N)N)cc1NC(=O)C1=[N+](C)C=C(NC(=O)c2cccc(C(=O)NC3=CC(C(=O)Nc4cc(C(=O)NCCC(=N)N)cn4C)=[N+](C)C3)c2)C1 for me?
> 100 µM (inactive)

###

Tested on: MDA-MB-435
Assay: NCI tumour cell line growth inhibition, 48 h
The source made the active and inactive calls. Rule as the data show it: active = GI50 up to about 1.1 µM and inactive = higher.
Parameter: GI50. Scope: all listed entries.

Can you look up the measured GI50 of CC(=O)OC12CC(C)C3(O)C4C=C(C)C(=O)[C@@]4(O)CC(CO)=C[C@H]3C1C2(C)C (stereo partly specified) for me?
3.67 µM (inactive)

Can you look up the measured GI50 of CC(=O)c1sc2c(c1OC(=O)c1cccs1)c(=O)n(-c1ccccc1)c(=S)n2-c1ccccc1 for me?
8.24 µM (inactive)

Can you look up the measured GI50 of c1cc2nnc1SCCSCCSc1ccc(nn1)SCCSCCS2 for me?
> 100 µM (inactive)

Can you look up the measured GI50 of O=C(O)Cc1c[nH]c2ccc(F)cc12 for me?
> 100 µM (inactive)

Can you look up the measured GI50 of CCOC(=O)C1=C(C)N(C)C(=S)NC1c1cccc(O)c1 (stereo unspecified) for me?
12.5 µM (inactive)

Can you look up the measured GI50 of Oc1ccccc1/C=N/N1C(=S)N(c2ccccc2)C(=N\c2ccccc2)/C1=N/c1ccccc1 for me?
22.3 µM (inactive)

###

System: SNB-19
Experiment: NCI tumour cell line growth inhibition, 48 h
Activity calls are given as the source filed them. Rule as the data show it: active = GI50 up to about 1.1 µM and inactive = higher.
Parameter: GI50. Scope: all listed entries.

# example entries with known answers
compound: CN(C)Cc1cc(/N=N/c2ccccc2Cl)ccc1O
measured-on: SNB-19
result-type: GI50
value: 32.2 µM (inactive)
--
compound: C[C@]12CCC(=O)C=C1CC[C@@H]1[C@@H]2CC[C@]2(C)C(=O)/C(=C\c3ccccc3)C[C@@H]12
measured-on: SNB-19
result-type: GI50
value: 60.5 µM (inactive)
--
compound: CCCOC(=O)C1C(c2ccc(OC)cc2)NC(c2ccc(OC)cc2)C(C(=O)OCCC)S1(=O)=O (centres undefined)
measured-on: SNB-19
result-type: GI50
value: > 10 µM (inactive)

As a next step, examine the compound that follows.
Can you look up the measured GI50 of O=C(c1cc2ccccc2[nH]1)N1C2CCC1CN(CCOC(c1ccc(F)cc1)c1ccc(F)cc1)CC2 (centres undefined) for me?
> 100 µM (inactive)

###

Test system: UO-31
Test: NCI tumour cell line growth inhibition, 48 h
Active and inactive are the calls of the source. Cut-off read from the data, not from the text of the source: active = GI50 up to about 1.1 µM and inactive = higher.
Parameter: GI50. Scope: all listed entries.

compound: CC(=O)N1CC[N+](C)(CCCCN2c3ccccc3Sc3cc(N=[N+]=[N-])ccc32)CC1
measured-on: UO-31
GI50: > 100 µM (inactive)
--
compound: O=C1NN=C(c2ccc(Cl)cc2)CC1C1C(=O)N(c2ccccc2)N=C1c1ccccc1 (stereo not drawn)
measured-on: UO-31
GI50: 21.5 µM (inactive)
--
compound: Cc1cc(C)nc(NS(=O)(=O)c2ccc(NNc3c4ccccc4nc4c(C(=O)Nc5ccc(S(=O)(=O)N=C(N)N)cc5)cccc34)cc2)n1
measured-on: UO-31
GI50: 27.7 µM (inactive)
--
compound: NC(=S)N/N=C1\c2ccccc2CCC1CCC1(O)CCc2ccccc2C1=O (stereo not drawn)
measured-on: UO-31
GI50: 12 µM (inactive)
--
compound: COC(=O)C1=C(OC(=O)/C=C/c2ccc(Cl)cc2)C(C(=O)OC)[C@@]2(O)[C@@H](C(=O)OC)[C@H](C)C[C@@H]1[C@@H]2C(=O)OC (stereo partly drawn)
measured-on: UO-31
GI50: 27 µM (inactive)
--
compound: Cc1cc(NCCCCCCCNc2cc(C)nc3cc(N)ccc23)c2ccc(N)cc2n1
measured-on: UO-31
GI50: > 100 µM (inactive)
--
compound: CC(C)N1C(C)[C@@H](c2ccccc2)O[P@]1(=O)CC1=CCCCC1 (stereo partly drawn)
measured-on: UO-31
GI50: 74 µM (inactive)
--
compound: CC(=O)Nc1ccc(-c2nnc(SCC(=O)Nc3ccc(C)cc3)o2)cc1
measured-on: UO-31
GI50: 47.6 µM (inactive)

Can you look up the measured GI50 of CCOC(=O)C(NC(=O)Nc1ccccc1)(Nc1cccc(Cl)c1)C(F)(F)F (stereo not drawn) for me?
> 100 µM (inactive)

Can you look up the measured GI50 of COc1cc2c(cc1OC)C1c3ccccc3CCN1CCC2.[O-][Cl+3]([O-])([O-])O (stereo not drawn) for me?
48.4 µM (inactive)

Can you look up the measured GI50 of CN(C)C(=S)SCC(=O)Nc1ccccc1 for me?
> 100 µM (inactive)

Can you look up the measured GI50 of O=C(c1ccccc1)n1cc(-c2ccccc2)c2c(=O)nc[nH]c21 for me?
> 100 µM (inactive)

Can you look up the measured GI50 of CCN(CC)CCCNc1ncc(C)c2[nH]c3ccncc3c12 for me?
28.1 µM (inactive)

###

Test system: U-251
Assay: NCI tumour cell line growth inhibition, 48 h
Activity calls are given as the source filed them. No stated cut-off is given here; in the data, active = GI50 up to about 1.1 µM and inactive = higher.
Result category, one only: 1 for active, -1 for inactive

Worked cases, answers included:
compound: O=C1NC(=S)NC(=O)C1=Cc1cc2c(cc1[N+](=O)[O-])OCO2
measured-on: U-251
category: -1
//
compound: COC1=CC(=O)C=C(OC)C1=O
measured-on: U-251
category: -1
//
compound: O=C1NCC(NC(=O)C(F)(F)F)c2c(Br)sc(Br)c21 (stereo unspecified)
measured-on: U-251
category: -1
//
compound: CCOC(=O)C(C(=O)COC(C)(C)C)[C@@H]1C=C[C@H](OC(C)=O)C1 (stereo partly specified)
measured-on: U-251
category: -1
//
compound: Cc1ccc(O)c(-c2cc(-c3cccc(Br)c3)on2)c1
measured-on: U-251
category: -1

Query: recorded result category for Cc1cccc(C)c1NC(=O)C(=O)CC(=O)c1cccc([N+](=O)[O-])c1 in this test
-1

Query: recorded result category for Cc1cccc2[n+]1[C@H]1[C@H]([C@@H]3O[C@H]1c1ccccc13)[S+]([O-])N2 (stereo partly specified) in this test
-1
